Here, each record is paired with measured Aphis craccivoral Mortality (%) 500 ppm data.
# Tested on: Aphis craccivoral
# method notes: Insecticidal activities to aphids, immersion method
# Type: in vivo
# settings: in vivo

The cases that follow already have their Aphis craccivoral Mortality (%) 500 ppm on record.
{"columns": ["compound", "Aphis craccivoral Mortality (%) 500 ppm"],
 "data": [
  ["CN=C(C(=Cc1ccc(Cl)o1)[N+](=O)[O-])N(C)Cc1ccc(Cl)nc1 [Compound 234]", "37%"],
  ["O=[N+]([O-])C(=Cc1cnc[nH]1)C1=NCCN1Cc1ccc(Cl)nc1", "98%"],
  ["O=[N+]([O-])C(=Cc1ccc([N+](=O)[O-])o1)C1=NCCN1Cc1ccccc1", "80%"]
]}

query: I'd like to know its Aphis craccivoral Mortality (%) 500 ppm. The compound in question is O=[N+]([O-])C(=Cc1ccsc1)C1=NCCCN1Cc1ccc(Cl)nc1
result: 90%

query: And then CN=C(C(=Cc1ccc([N+](=O)[O-])s1)[N+](=O)[O-])N(C)Cc1ccc(Cl)nc1 [Compound 238] , what is it?
result: 91%

query: What do you have for C[N+]1=C(C(=Cc2cc(Br)c(Br)s2)[N+](=O)[O-])N(Cc2ccc(Cl)nc2)CC1.[Cl-] ?
result: 100%

query: How about this compound: N#CC(=Cc1cc(Br)cs1)C1=NCCN1Cc1ccc(Cl)nc1
result: 97%

query: And the next one, CCN=C(C(=Cc1ccoc1)[N+](=O)[O-])N(CC)Cc1ccc(Cl)nc1 ?
result: 87%

----------
# Nilaparvata lugens Mortality (%) 500 ppm per entry
# Tested on: Nilaparvata lugens
# method notes: Insecticidal activities to plant hopper, spraying method
# Type: in vivo
# settings: in vivo
Provide the reading as a plain figure in %.

Example cases with answers are listed next.
{"columns": ["molecule", "recorded endpoint", "numeric readout"],
 "data": [
  ["O=[N+]([O-])C(=Cc1oc(Cl)cc1Cl)C1=NCCCN1Cc1ccc(Cl)nc1", "Nilaparvata lugens Mortality (%) 500 ppm", 100],
  ["CCN(Cc1cnc(Cl)s1)C(=NC)C(=Cc1ccc([N+](=O)[O-])s1)[N+](=O)[O-]", "Nilaparvata lugens Mortality (%) 500 ppm", 75],
  ["O=[N+]([O-])C(=Cc1cccs1)C1=NCCN1Cc1cnc(Cl)s1", "Nilaparvata lugens Mortality (%) 500 ppm", 100]
]}

As a next step, examine the molecule that follows.
query: # Nilaparvata lugens Mortality (%) 500 ppm lookup, item O=[N+]([O-])C(=Cc1oc(Cl)cc1Cl)C1=NCCN1CC1CCOC1 (stereo not shown)
result: 97

----------
Reported Nilaparvata lugens Mortality (%) 500 ppm values for the following compounds.
# System: Nilaparvata lugens
# method notes: Insecticidal activities to plant hopper, spraying method
# Format: in vivo
# settings: in vivo
The reply should be a number in %, with the unit left off.

Solved cases (4 shown):
{"columns": ["compound", "test target", "Nilaparvata lugens Mortality (%) 500 ppm"],
 "data": [
  ["O=[N+]([O-])C(=Cc1ccc(CO)o1)C1=NCCN1CC1CCOC1 (centres unmarked)", "Nilaparvata lugens", 89],
  ["CN=C(C(=Cc1ccc[nH]1)[N+](=O)[O-])N(C)Cc1ccc(Cl)nc1 [Compound 240]", "Nilaparvata lugens", 68],
  ["C[N+]1=C(C(=Cc2cc(Br)cs2)[N+](=O)[O-])N(Cc2ccc(Cl)nc2)CC1.[Cl-]", "Nilaparvata lugens", 100],
  ["O=[N+]([O-])C(=Cc1cnc(Cl)s1)C1=NCCN1Cc1ccc(Cl)nc1", "Nilaparvata lugens", 100]
]}

query: Need Nilaparvata lugens Mortality (%) 500 ppm of O=[N+]([O-])C(=Cc1sc(Br)cc1Br)C1=NCCN1Cc1ccc(Cl)nc1 , thanks.
result: 100

query: Now consider O=[N+]([O-])C(=Cc1cc(Cl)co1)C1=NCCN1Cc1ccccc1 and answer again.
result: 87

query: Now try CCN(Cc1ccc(Cl)nc1)C(=NC)C(=Cc1ccoc1)[N+](=O)[O-] [Compound 180] .
result: 100

query: What would you report for CC(=C(C1=NCCN1C(C)c1ccc(Cl)nc1)[N+](=O)[O-])c1cccs1 (racemic) ?
result: 100

----------
Measured Pseudaletia separate Walker Mortality (%) 500 ppm values are reported for all entries that follow.
# Tested on: Pseudaletia separate Walker
# method notes: Insecticidal activities to armyworm, leaf dipping and feeding
# Assay type: in vivo
# settings: in vivo
# Procedure: Mortality (%)=(the number of the survival aphis in control group−the number of the survival aphis in the treatment group)/the number of the survival aphis in control group×100% (3): Insecticidal Activities to Armyworm Armyworm (Pseudaletia separate Walker) was tested by the way of leaf dipping and feeding. […] The number of killed insects was counted after 24 hours to calculate the mortality according to the above mentioned formula.
Answer format: numeric, % implied, no suffix.

Sample records with Pseudaletia separate Walker Mortality (%) 500 ppm:
{"columns": ["compound", "numeric readout"],
 "data": [
  ["O=[N+]([O-])C(=Cc1cnco1)C1=NCCN1Cc1ccc(Cl)nc1", 100],
  ["N#CC(=Cc1cccs1)C1=NCCN1Cc1ccc(Cl)nc1", 100],
  ["CC[N+]1=C(C(=Cc2ccc(Cl)o2)[N+](=O)[O-])N(Cc2ccc(Cl)nc2)CC1.[Cl-]", 100],
  ["CC[N+]1=C(C(=Cc2ccc([N+](=O)[O-])o2)[N+](=O)[O-])N(Cc2ccc(Cl)nc2)CC1.[Cl-]", 100],
  ["CC[N+]1=C(C(=Cc2ccc(Br)o2)[N+](=O)[O-])N(Cc2ccc(Cl)nc2)CC1.[Cl-]", 100]
]}

query: Fill blank: measured Pseudaletia separate Walker Mortality (%) 500 ppm of the compound C[N+]1=C(C(=Cc2sc(Cl)cc2Cl)[N+](=O)[O-])N(Cc2ccc(Cl)nc2)CC1.[Cl-] is ____.
result: 100

query: Would you mind doing O=[N+]([O-])C(=Cc1ccco1)C1=NCCN1Cc1ccccc1 as well?
result: 70

query: What do you get for O=[N+]([O-])C(=Cc1cc(Br)c(Br)o1)C1=NCCN1Cc1ccccc1 ?
result: 85

query: Consider next the compound O=[N+]([O-])C(=Cc1ccc(F)nc1)C1=NCCN1Cc1ccc(Cl)nc1 in the same way.
result: 100

----------
# System: Plutella xylostella
# method notes: Insecticidal activities to diamondback moth, feeding dipped leaves
# Format: in vivo
# settings: in vivo
recorded endpoint: Plutella xylostella Mortality (%) 500 ppm
Provide only the numeric value, understood in %.

{"columns": ["smiles string", "numeric readout"],
 "data": [
  ["CC(=C(C1=NCCN1Cc1ccc(Cl)nc1)[N+](=O)[O-])c1ccc(Cl)s1", 23]
]}

query: Endpoint output: Plutella xylostella Mortality (%) 500 ppm of CC(=C(C1=NCCN1Cc1ccc(Cl)nc1)[N+](=O)[O-])c1ccc(C)o1 . Value?
result: 30

query: Same again, this time with CC(=C(C1=NCCN1Cc1ccc(Cl)nc1)[N+](=O)[O-])c1cc(Cl)cs1
result: 68

----------
# System: Nilaparvata lugens
# method notes: Insecticidal activities to plant hopper, spraying method
# Type: in vivo
# settings: in vivo
# Nilaparvata lugens Mortality (%) 500 ppm per record follows
Quick reminder: number only, in %, skip the unit.

Example entries and their recorded answers appear below.
{"columns": ["compound", "Nilaparvata lugens Mortality (%) 500 ppm"],
 "data": [
  ["CCN=C(C(=Cc1ccc([N+](=O)[O-])o1)[N+](=O)[O-])N(CC)Cc1ccc(Cl)nc1 [Compound 191]", 100],
  ["CCN(Cc1ccc(Cl)nc1)C(=NC)C(=C(C)c1ccsc1)[N+](=O)[O-] [Compound 201]", 100],
  ["CC[N+]1=C(/C(=C\\c2ccc[nH]2)[N+](=O)[O-])N(Cc2ccc(Cl)nc2)CC1.[Cl-] [Compound 295]", 100]
]}

query: Can you look up the measured Nilaparvata lugens Mortality (%) 500 ppm of CC(=C(C1=NCCN1Cc1ccc(Cl)nc1)[N+](=O)[O-])c1ccc(Cl)s1 [Compound 118] for me?
result: 90

query: Entry to check: C[N+]1=C(C(=Cc2ccc[nH]2)[N+](=O)[O-])N(Cc2ccc(Cl)nc2)CC1.[Cl-] [Compound 274]
result: 100

----------
Parameter: Pseudaletia separate Walker Mortality (%) 500 ppm. Scope: all listed entries.
# Test system: Pseudaletia separate Walker
# method notes: Insecticidal activities to armyworm, leaf dipping and feeding
# Assay type: in vivo
# settings: in vivo
Please make sure the unit comes right after the number.

Examples with answers:
{"columns": ["compound", "result"],
 "data": [
  ["O=[N+]([O-])C(=Cc1ccoc1)C1=NCCN1Cc1ccccc1", "79%"],
  ["O=[N+]([O-])C(=Cc1ccc(Cl)s1)C1=NCCN1Cc1cnc(Cl)s1", "100%"],
  ["O=[N+]([O-])C(=Cc1cnc(Cl)s1)C1=NCCN1Cc1ccc(Cl)nc1", "100%"],
  ["N#CC(=Cc1ccc([N+](=O)[O-])o1)C1=NCCN1Cc1ccc(Cl)nc1", "100%"],
  ["O=[N+]([O-])C(=Cc1cc(Cl)co1)C1=NCCN1Cc1cnc(Cl)s1", "100%"],
  ["O=[N+]([O-])C(=Cc1ccc(Cl)nc1)C1=NCCN1Cc1ccc(Cl)nc1", "67%"],
  ["O=[N+]([O-])C(=Cc1cc(Cl)co1)C1=NCCN1CC1CCOC1 (stereo not drawn)", "58%"],
  ["Cc1csc(C=C(C2=NCCN2Cc2ccc(Cl)nc2)[N+](=O)[O-])c1", "100%"]
]}

query: Requested read-out: Pseudaletia separate Walker Mortality (%) 500 ppm. Entry: C[N+]1=C(C(=Cc2ccc(Cl)o2)[N+](=O)[O-])N(Cc2ccc(Cl)nc2)CC1.[Cl-]
result: 100%

query: And O=[N+]([O-])C(=Cc1ccsc1)C1=NCCN1Cc1ccc(Cl)nc1 ?
result: 100%

query: Entry CC(c1ccc(Cl)nc1)N1CCN=C1C(=Cc1ccc([N+](=O)[O-])s1)[N+](=O)[O-] (racemic) please
result: 100%

query: Subsequent entry: CC[N+]1=C(C(=Cc2ccoc2)[N+](=O)[O-])N(Cc2ccc(Cl)nc2)CC1.[Cl-]
result: 100%
